target: T1, human PDGF-BB (R&D system, 220-BB) (human, UniProt P01127 82-190, biotinylated in the blocking ELISA of Example 4 (sites not given); unlabelled in the SPR assay); assay: blocking ELISA: HCAb dilutions with 2 nM biotinylated PDGF-BB, binding to coated PDGFRβ-Fc
T1 construct: Bought protein (R&D Systems), a homodimer of two B subunits; also called human biotinylated PDGF-BB
T1 sequence (P01127 82-190 limits assumed): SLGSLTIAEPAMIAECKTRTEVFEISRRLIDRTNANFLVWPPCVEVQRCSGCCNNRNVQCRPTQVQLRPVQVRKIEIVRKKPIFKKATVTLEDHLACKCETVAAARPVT
result.type: IC50 (nM)
Numbers only, in nM.

Example entries and their recorded answers appear below.
{"binder": "anti-PDGF BB HCAb P36E8 (antibody, IgG1, V domains shown, Heavy chain only antibody, no light chain; VH fused to IgG1 hinge and CH2/CH3; not shown: human IgG1 hinge region and CH2/CH3 regions (no CH1)) VH: QVQLLESGGGLVQPGGSLRLSCAASGFTFSSYAMSWVRQAPGKGLEWVSAISGSGGSTYYADSVKGRFTISRDNSKNTLYLQMNSLRAEDTAVYYCASNSELFKVNGVIRYDFWGQGTLVTVSS", "u": "nM", "numeric.readout": 5.52}
{"binder": "anti-PDGF BB HCAb P36F3 (antibody, IgG1, V domains shown, Heavy chain only antibody, no light chain; VH fused to IgG1 hinge and CH2/CH3; not shown: human IgG1 hinge region and CH2/CH3 regions (no CH1)) VH: QVQLVESGGGLVQPGGSLRLSCAASGFTFSSYWMHWVRQAPGKGLVWVSRINSDGSSTSYADSVKGRFTISRDNAKNTLYLQMNSLRAEDTAVYYCAKDKGITMVRGVIHFDYWGQGTLVTVSS", "u": "nM", "numeric.readout": 1.71}
{"binder": "anti-PDGF BB HCAb P36C12 (antibody, IgG1, V domains shown, Heavy chain only antibody, no light chain; VH fused to IgG1 hinge and CH2/CH3; It is printed in places as P36012, which looks like a misprint of P36C12; also called P36012; not shown: human IgG1 hinge region and CH2/CH3 regions (no CH1)) VH: QVQLLESGGGLVQPGGSLRLSCAASGFTFSSYAMSWVRQAPGKGLEWVSAISGSGGSTYYADSVKGRFTISRDNSKNTLYLQMNSLRAEDTAVYYCARNSEIFMVKGVIQYNSWGQGTLVTVSS", "u": "nM", "numeric.readout": 1.07}

Provide each entry's IC50 from the list below.
1. anti-PDGF BB HCAb P36E10 (antibody, IgG1, V domains shown, Heavy chain only antibody, no light chain; VH fused to IgG1 hinge and CH2/CH3; not shown: human IgG1 hinge region and CH2/CH3 regions (no CH1)) VH: QVQLLESGGGLVQPGGSLRLSCAASGFTFSSYAMSWVRQAPGKGLEWVSAISGSGGSTYYADSVKGRFTISRDNSKNTLYLQMNSLRAEDTAVYYCASNSGFFTLSGFIRYKFWGQGTLVTVSS
2. anti-PDGF BB HCAb P36A3 (antibody, V domains shown, Heavy chain only antibody, no light chain; VH fused to IgG1 hinge and CH2/CH3 and made in CHO cells as fully human recombinant HCAb; It was captured by anti-human IgG Fc in the SPR assay; not shown: human IgG1 hinge region and CH2/CH3 regions (no CH1)) VH: QVQLLESGGGLVQPGGSLRLSCAASGFTFSSYAMSWVRQAPGKGLEWVSAISGSGGSTYYADSVKGRFTISRDNSKNTLYLQMNSLRAEDTAVYYCASNSVFSTLKGFLQYKFWGQGTLVTVSS
3. anti-PDGF BB HCAb P36A4 (antibody, IgG1, V domains shown, Heavy chain only antibody, no light chain; VH fused to IgG1 hinge and CH2/CH3; not shown: human IgG1 hinge region and CH2/CH3 regions (no CH1)) VH: QVQLLESGGGLVQPGGSLRLSCPASGFTFSSYAMSWVRQAPGKGLEWVSAISGSGGSTYYADSVKGRFTISRDNSKNTLYLQMNSLRAEDTAVYYCARNNGIFMFRGVIRYKSWGQGTLVTVSS

Response line:
1. 21.4
2. 7.75
3. 3.77
